From: paper PMC9482650

target: TJP2_1, Q9UDY2; test: holdup assay; set-up: key: below the threshold = too weak to quantify, mostly under pKd 3.1 to 4; details: plain residues with an end cap or a label only (N-terminal biotin on a linker: ado-ado)
Sequence (Q9UDY2 24-128): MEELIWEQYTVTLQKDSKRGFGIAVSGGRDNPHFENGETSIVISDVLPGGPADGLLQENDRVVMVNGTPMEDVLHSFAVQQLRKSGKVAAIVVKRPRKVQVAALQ
experimentalEndpoint: pKd

Known pKd results, listed for orientation:
>>> print(df.to_string())
                        binder               result
0   GTGYDRKDYV [CLDN3, O15551]                 3.94
1  NIAESLESLV [PTPRZ1, P23471]  below the threshold
2   QLSFNTDTLC [ABCA2, Q9BZC7]  below the threshold
3   SPDRDRESIV [SCN5A, Q14524]  below the threshold
4    DRIQSCLSDA [SBF1, O95248]  below the threshold
5    STKRKLASAV [NCF1, P14598]  below the threshold

In: For EIPAQSPTCV [FZD10, Q9ULW2] , what is its reported pKd?
Out: 3.82

In: For QKAPTKEFYA [SDC2, P34741] , what is its reported pKd?
Out: below the threshold

In: For PPGKHLVTEV [KCNA7, Q96RP8] , what is its reported pKd?
Out: 3.6
